Target: T1, PUF4 RNA-binding domain (Saccharomyces cerevisiae, UniProt P25339 537-888)
T1 sequence: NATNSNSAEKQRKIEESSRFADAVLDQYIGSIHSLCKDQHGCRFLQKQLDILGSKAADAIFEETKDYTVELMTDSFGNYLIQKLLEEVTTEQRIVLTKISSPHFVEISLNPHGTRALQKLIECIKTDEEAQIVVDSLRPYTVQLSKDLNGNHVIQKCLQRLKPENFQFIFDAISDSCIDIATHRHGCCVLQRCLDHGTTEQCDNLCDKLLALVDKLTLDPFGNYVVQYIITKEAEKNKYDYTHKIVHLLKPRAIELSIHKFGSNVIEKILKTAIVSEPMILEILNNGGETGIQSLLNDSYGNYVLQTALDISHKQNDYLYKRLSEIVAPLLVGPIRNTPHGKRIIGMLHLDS
Assay: Mg; RNA-MaP; 20 mM Na-HEPES pH 7.4, 30 mM KOAc, 0.75 mM MgCl2, 0.1% Tween-20, 5% glycerol, 0.1 mg/mL BSA, 2 mM DTT; 25 C; 0.0125-409.6 nM protein
Conditions: tags: N-His6-TEV cleaved; C-SNAP kept, Cy3B-labelled; label: tethered on chip by stalled RNA polymerase
Provide the recorded Kd for the entries that follow.

Tell me its Kd given Ic_S4_P3E.1_K3.1_C3.1_H3.1_A3.1_[T5C]_[A6C]_F3.1_[A8T]_T3.1 (ssRNA) RNA: UUUGACAACUGAUCGUUCUUUCUUGUACCUUUUCUUUCUCGAUCAGUUGUCUUU as the entry. 13.4 nM

Tell me its Kd given UCUCUUUGUACCCAUCUCUU (ssRNA) [Ic_S1_P3E.1_K3.1_C3.1_H3.1_A3.1_[T5C]_[A6C]_F3.1_[T7C]_T3.1] as the entry. 429 nM

Tell me its Kd given Id_ii_S4_P3E.3_K3.2_C3.2_[C-2T]_H3.2_A3.1_F3.1_T3.2_[T9G]_[A10T] (ssRNA) RNA: UUUGACAACUGAUCGUUCUUUCUUUUAUAUAUAGUUUCUUUCUCGAUCAGUUGUCUUU as the entry. 575 nM

Tell me its Kd given Ie_S2_P5E.1_K5.1_C5.1_H5.1_A5.1_F5.1_[+10TTCC]_T5.1 (ssRNA) RNA: UUUGAUUAAUAUGAUAUCGUUCUUUCUUGUAUUAUUAUUCCUUCUUUCUCGAUAUCAUAUUAAUCUUU as the entry. 2.02 nM

Tell me its Kd given Ic_S4_P5E.1_K5.1_C5.1_H5.1_A5.1_[T5A]_[T6C]_[A7G]_F5.1_[T9A]_[A10G]_T5.1 (ssRNA) RNA: UUUGACAACUGAUCGUUCUUUCUUGUAACGUAGUUCUUUCUCGAUCAGUUGUCUUU as the entry. 114 nM

Tell me its Kd given UCUCUUCUUGUAUAUACUUAUCUCUU (ssRNA) [Ie_S1_P3E.2_K3.1_C3.2_H3.1_A3.1_F3.1_[+8CT]_T3.2] as the entry. 9.04 nM
